Parameter: pIC50. Scope: all listed entries.
- System: MOLM-13 cells
- test_method_notes: Cell viability assay (CellTiter-Glo) in MOLM-13 cells, alone or with gilteritinib
- Format: cell-based
- study_conditions: Homo sapiens, MOLM-13, 72 h, MOLM-13 cells, compound alone (without gilteritinib), three days, CellTiter-Glo; read-out: MOLM-13 IC50
pIC50: −log10 of the molar value.

Example entries begin here.
O=C1CCC(N2C(=O)c3ccc(NC(=O)CCCC(=O)N4CCC(n5cc(-c6cnc7ccccc7n6)cn5)CC4)cc3C2=O)C(=O)N1 (stereo not shown) [GS-327] ... < 6.00
O=C1CCC(N2C(=O)c3ccc(NC[C@H]4C[C@H](n5nc(C6CC6)c6ccncc65)C4)cc3C2=O)C(=O)N1 (stereo partly shown) [GS-473] ... < 6.00
O=C1CCC(N2C(=O)c3ccc(NCCC[C@H]4C[C@H](n5cc(-c6ccccc6)cn5)C4)cc3C2=O)C(=O)N1 (stereo partly shown) [GS-232] ... 6.00 to 7.00
CN(c1ccc2[nH]ccc2n1)C1CCN(CC(=O)NCCNc2ccc3c(c2)C(=O)N(C2CCC(=O)NC2=O)C3=O)CC1 (stereo not shown) [GS-322] ... < 6.00
Cc1nn([C@H]2C[C@@H](CCCNc3ccc4c(c3)C(=O)N(C3CCC(=O)NC3=O)C4=O)C2)cc1-c1cnc2cc(N3CCN(C)CC3)ccc2n1 (stereo partly shown) [GS-428] ... 7.00 to 8.00
O=C1CCC(N2C(=O)c3ccc(NCCCCCCn4cc(-c5cnc6cccc(Cl)c6n5)cn4)cc3C2=O)C(=O)N1 (stereo not shown) [GS-376] ... < 6.00

pIC50 reading for O=C1CCC(N2Cc3cc(OCCC(=O)N4CCC(n5cc(-c6cnc7ccccc7n6)cn5)CC4)ccc3C2=O)C(=O)N1 (stereo not shown) [GS-485] : < 6.00

According to the records, this compound O=C1CCC(N2C(=O)c3ccc(NC[C@H]4C[C@H](n5cc(-c6cnc7c(N8CCOCC8)cccc7n6)c(C6CC6)n5)C4)cc3C2=O)C(=O)N1 (stereo partly shown) [GS-266] displays pIC50 of > 8.00

response.value for O=C1CCC(N2C(=O)c3ccc(NCCC[C@H]4C[C@H](n5cc(-c6ncccn6)cn5)C4)cc3C2=O)C(=O)N1 (stereo partly shown) [GS-242] (field: pIC50) = < 6.00

====

Reported IC50 values for a set of molecules
- Tested on: MV4;11 cells
- test_method_notes: Cell viability assay (CellTiter-Glo) in MV4;11 cells, alone or with gilteritinib
- Type: cell-based
- study_conditions: Homo sapiens, MV4-11, 72 h, MV4;11 cells, compound with gilteritinib 10 nM, three days, CellTiter-Glo; read-out: MV4; 11 IC50 gilteritinib

Reference set, count: 5
CNc1cccnc1-c1cn([C@H]2C[C@H](CNc3ccc4c(c3)C(=O)N(C3CCC(=O)NC3=O)C4=O)C2)nc1C1CC1 (stereo partly drawn) ... < 10 nM
Cn1ccc2c(-c3cn([C@H]4C[C@H](CNc5ccc6c(c5)C(=O)N(C5CCC(=O)NC5=O)C6=O)C4)nc3C3CC3)nccc21 (stereo partly drawn) ... < 10 nM
O=C1CCC(N2C(=O)c3ccc(NC[C@H]4C[C@H](n5nc(C6CC6)c6ccccc65)C4)cc3C2=O)C(=O)N1 (stereo partly drawn) ... < 10 nM
O=C1CCC(N2C(=O)c3ccc(NCCC[C@H]4C[C@H](n5cc(-c6cnc7cc(C8CCOCC8)ccc7n6)cn5)C4)cc3C2=O)C(=O)N1 (stereo partly drawn) ... 10 to 100 nM
O=C1CCC(N2C(=O)c3ccc(NCCC[C@H]4C[C@@H](n5cc(-c6cnc7cc(C8CCOCC8)ccc7n6)cn5)C4)cc3C2=O)C(=O)N1 (stereo partly drawn) ... 10 to 100 nM

Consider the additional molecule presented here.
IC50 recorded for this molecule, CNC(=O)c1nn([C@H]2C[C@H](CNc3ccc4c(c3)C(=O)N(C3CCC(=O)NC3=O)C4=O)C2)cc1-c1cccc(C)n1 (stereo partly drawn) , is < 10 nM

====

- System: MOLM-13 cells
- test_method_notes: Cell viability assay (CellTiter-Glo) in MOLM-13 cells, alone or with gilteritinib
- Assay type: cell-based
- study_conditions: Homo sapiens, MOLM-13, 72 h, MOLM-13 cells, compound alone (without gilteritinib), three days, CellTiter-Glo; read-out: MOLM-13 IC50
Recorded IC50 by entry

Solved entries:
O=C1CCC(N2C(=O)c3ccc(NC[C@H]4C[C@H](n5cc(N6CCNCC6)c(C6CC6)n5)C4)cc3C2=O)C(=O)N1 (stereo partly drawn) ... > 1 µM
O=C1CCC(N2C(=O)c3ccc(NC[C@H]4C[C@H](n5cc(-c6nccc7cc[nH]c67)c(C6CC6)n5)C4)cc3C2=O)C(=O)N1 (stereo partly drawn) ... > 1 µM
O=C1CCC(N2C(=O)c3ccc(NCCCCCC(=O)N4CCC(n5cc(-c6cnc7cccc(C8CCOCC8)c7n6)cn5)CC4)cc3C2=O)C(=O)N1 (stereo not drawn) ... 0.01 to 0.1 µM
O=C1CCC(N2Cc3c(Nc4ccnc(Nc5cccc(N6CCC(c7ccccc7)CC6)c5)n4)cccc3C2=O)C(=O)N1 (stereo not drawn) ... 0.1 to 1 µM
O=C1CCC(N2C(=O)c3ccc(NCCC[C@H]4C[C@H](n5cc(-c6ccnc(N7CCOCC7)n6)cn5)C4)cc3C2=O)C(=O)N1 (stereo partly drawn) ... > 1 µM

Shift focus to the following entry.
Per the records, this molecule ( O=C1CCC(N2Cc3cc(CNC(=O)c4cccc(N5CCC(n6cc(-c7cnc8ccccc8n7)cn6)CC5)c4)ccc3C2=O)C(=O)N1 (stereo not drawn) ) has IC50 equal to < 0.01 µM

====

Reported pIC50 values follow for various compounds
- Test system: MOLM-13 cells
- test_method_notes: Cell viability assay (CellTiter-Glo) in MOLM-13 cells, alone or with gilteritinib
- Format: cell-based
- study_conditions: Homo sapiens, MOLM-13, 72 h, MOLM-13 cells, with gilteritinib 20 nM, three days, CellTiter-Glo; read-out: MOLM-13 IC50 gilteritinib
pIC50: −log10 of the molar value.

Previously resolved entries follow.
O=C1CCC(N2C(=O)c3ccc(NC(=O)COCC(=O)N4CCC(n5cc(-c6cnc7ccccc7n6)cn5)CC4)cc3C2=O)C(=O)N1 (stereo not drawn) ... < 6.00
O=C1CCC(N2Cc3c(Nc4ccnc(Nc5cccc(N6CCC(c7ccccc7)CC6)c5)n4)cccc3C2=O)C(=O)N1 (stereo not drawn) ... 7.00 to 8.00

Considering O=C1CCC(N2Cc3c(Nc4ccnc(Nc5ccc(N6CCC(n7cc(-c8cnc9cccc(Br)c9n8)cn7)CC6)cc5)n4)cccc3C2=O)C(=O)N1 (stereo not drawn) , its pIC50 with MOLM-13 cells was recorded as < 6.00

====

- Tested on: MV4;11 cells
- test_method_notes: Cell viability assay (CellTiter-Glo) in MV4;11 cells, alone or with gilteritinib
- Type: cell-based
- study_conditions: Homo sapiens, MV4-11, 72 h, MV4;11 cells, compound with gilteritinib 10 nM, three days, CellTiter-Glo; read-out: MV4; 11 IC50 gilteritinib
Measured IC50 accompanies every entry in the list below.

Some compounds with known IC50 results, for comparison:
O=C1CCC(N2C(=O)c3ccc(NCCC[C@H]4C[C@@H](n5cc(-c6cnc7cc(NC8COC8)ccc7n6)c(C6CC6)n5)C4)cc3C2=O)C(=O)N1 (stereo partly drawn) ... < 10 nM
O=C1CCC(N2C(=O)c3ccc(NCCC[C@H]4C[C@H](n5cc(-c6cnc7c(C8CCNCC8)cccc7n6)cn5)C4)cc3C2=O)C(=O)N1 (stereo partly drawn) ... < 10 nM
O=C1CCC(N2C(=O)c3ccc(NC[C@H]4C[C@H](n5cc(-c6ccccc6Cl)c(C6CC6)n5)C4)cc3C2=O)C(=O)N1 (stereo partly drawn) ... < 10 nM
Cc1cccc(-c2cnn([C@H]3C[C@H](CNc4ccc5c(c4)C(=O)N(C4CCC(=O)NC4=O)C5=O)C3)c2)n1 (stereo partly drawn) ... 100 to 1000 nM

Please fill in: IC50 reported for O=C1CCC(N2C(=O)c3ccc(NCCCC4CC(n5cc(-c6cnc7ccc(NC8COC8)cc7n6)cn5)C4)cc3C2=O)C(=O)N1 (stereo not drawn) = 10 to 100 nM

Note to self: IC50 recorded for CC(C)n1ncc2c(-c3cn([C@H]4C[C@H](CNc5ccc6c(c5)C(=O)N(C5CCC(=O)NC5=O)C6=O)C4)nc3C3CC3)nccc21 (stereo partly drawn) was < 10 nM

====

Below, each of the compounds is paired with its reported pIC50 value.
- Test system: MV4;11 cells
- test_method_notes: Cell viability assay (CellTiter-Glo) in MV4;11 cells, alone or with gilteritinib
- Assay type: cell-based
- study_conditions: Homo sapiens, 72 h; MV4;11 cells, compound alone (without gilteritinib), three days, CellTiter-Glo; read-out: MV4; 11 IC50
pIC50: −log10 of the molar value.

Answered cases to consult:
O=C1CCC(N2Cc3ccc(CCCCCCC(=O)N4CCN(c5ccccn5)CC4)cc3C2=O)C(=O)N1 (centres unmarked) ... 7.00 to 8.00
O=C1CCC(N2C(=O)c3ccc(NC[C@H]4C[C@H](n5cc(-c6ccccc6)c(C6CC6)n5)C4)cc3C2=O)C(=O)N1 (some centres unmarked) ... 7.00 to 8.00
O=C1CCC(N2C(=O)c3ccc(NCCNc4cccc(N5CCN(c6ccccn6)CC5)c4)cc3C2=O)C(=O)N1 (centres unmarked) ... 7.00 to 8.00
O=C1CCC(N2C(=O)c3ccc(NCCCN4CC(N5CCN(c6ccccn6)CC5)C4)cc3C2=O)C(=O)N1 (centres unmarked) ... < 6.00
CN1CCC(Nc2cccc(-c3cn([C@H]4C[C@H](CNc5ccc6c(c5)C(=O)N(C5CCC(=O)NC5=O)C6=O)C4)nc3C3CC3)n2)CC1 (some centres unmarked) ... < 6.00

Test item O=C1CCC(N2C(=O)c3ccc(NCCCC(=O)N4CCC(c5ccccc5)CC4)cc3C2=O)C(=O)N1 (centres unmarked) ; MV4;11 cells; reported pIC50 was < 6.00

Reported MV4;11 cells pIC50 for item CN(c1ccccc1)C1CCN(CC(=O)NCCNc2ccc3c(c2)C(=O)N(C2CCC(=O)NC2=O)C3=O)CC1 (centres unmarked) was < 6.00

Observed pIC50, MV4;11 cells, O=C1CCC(N2C(=O)c3ccc(NCCNc4cccc(N5CCC(n6cc(-c7cnc8ccccc8n7)cn6)CC5)c4)cc3C2=O)C(=O)N1 (centres unmarked) : 7.00 to 8.00

Item CC(C)c1nc2ccccc2nc1-c1cnn(CCCCCCNc2ccc3c(c2)C(=O)N(C2CCC(=O)NC2=O)C3=O)c1 (centres unmarked) ; assay system MV4;11 cells; pIC50 reported as < 6.00

Considering O=C1CCC(N2Cc3ccc(CCCCCC(=O)N4CCC(c5ccccc5)CC4)cc3C2=O)C(=O)N1 (centres unmarked) , its pIC50 with MV4;11 cells was recorded as 6.00 to 7.00

The compound O=C1CCC(N2Cc3cc(CNC(=O)Nc4cccc(N5CCC(c6ccccc6)CC5)c4)ccc3C2=O)C(=O)N1 (centres unmarked) on MV4;11 cells: pIC50 was > 8.00

Log: MV4;11 cells, compound O=C1CCC(N2C(=O)c3ccc(NCCCC(=O)N4CCN(c5ccccc5)CC4)cc3C2=O)C(=O)N1 (centres unmarked) , pIC50 = < 6.00

Simply: O=C1CCC(N2C(=O)c3ccc(NCCNc4cccc(-n5cc(-c6cnc7ccccc7n6)cn5)c4)cc3C2=O)C(=O)N1 (centres unmarked) , MV4;11 cells, pIC50 = 6.00 to 7.00

Summary line: O=C1CCC(N2C(=O)c3ccc(NCCCc4ccc(F)c(N5CCC(c6ccccc6)CC5)c4)cc3C2=O)C(=O)N1 (centres unmarked) , MV4;11 cells, reported pIC50 = < 6.00

# lookup: O=C1CCC(N2C(=O)c3ccc(NCCNc4cccc(-n5cc(-c6cnc7cccc(Br)c7n6)cn5)c4)cc3C2=O)C(=O)N1 (centres unmarked) on MV4;11 cells, pIC50 = 7.00 to 8.00
